Sequence of the target: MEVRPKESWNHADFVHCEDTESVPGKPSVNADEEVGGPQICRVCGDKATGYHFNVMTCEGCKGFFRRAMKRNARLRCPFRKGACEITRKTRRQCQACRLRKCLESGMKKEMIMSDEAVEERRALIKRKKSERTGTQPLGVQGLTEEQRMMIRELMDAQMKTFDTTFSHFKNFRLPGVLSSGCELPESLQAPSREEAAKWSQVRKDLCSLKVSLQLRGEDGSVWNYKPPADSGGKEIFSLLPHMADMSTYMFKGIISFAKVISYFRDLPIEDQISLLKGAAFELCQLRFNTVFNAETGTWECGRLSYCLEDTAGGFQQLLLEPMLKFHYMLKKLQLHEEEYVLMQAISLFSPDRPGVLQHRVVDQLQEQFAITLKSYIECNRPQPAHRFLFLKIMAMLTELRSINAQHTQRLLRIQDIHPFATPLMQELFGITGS
Would you mind telling me the reported IC50 of each entry?
Enter your answer as a number in µM; do not include the unit.

Lookup: Supply IC50 value. Item: C[C@@H](O[C@H]1CN2C(=O)[C@H]3C[C@@H](O)C[C@H]3[C@H]2[C@@H]1c1ccc(F)cc1)c1cc(C(F)(F)F)cc(C(F)(F)F)c1
Found: 4.5

Lookup: In one line, give reported IC50 of the entry CC[C@]1(O)C[C@H]2[C@H]3[C@H](c4ccc(F)cc4)[C@@H](O[C@H](C)c4cc(C(F)(F)F)cc(C(F)(F)F)c4)CN3C(=O)[C@H]2C1 .
Found: 3.3

Lookup: Provide measured IC50 value, entry: C[C@@H](O[C@H]1CN2C(=O)[C@H]3C[C@@](C)(O)C[C@H]3[C@H]2[C@@H]1c1ccc(F)cc1)c1cc(C(F)(F)F)cc(C(F)(F)F)c1
Found: 8.4
